assay.details: protease stability score; higher = more stable; yeast display proteolysis, trypsin and chymotrypsin;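 further: log10 excess protease needed over predicted unfolded state with 0 meaning unfolded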
assay.metric: protease stability score
// return just the number, without any unit appended

Ask: Return the recorded protease stability score value; entry: DEEEVKKFKEFLDDEKKGNEERAKKLADPNVNVRVGNRQVDGSDNLQKEIRTQKEQARFDMKVDHVEAHNGRIHLEFKLTVEVDGRPKSDTATADAVVTNGHITSLTVQMSEDQVREMDK
Result: -0.238

Ask: Give recorded protease stability score. DEKQMRSVTKFIRVLQHGDNNQLRRLADPNAKARVGEKDVTGMDDILTRWVTFVEQARVKIDIREMDVSNGKVVIDAHIEIDINGRPLRDKITIIAEYRNGRLKFLELHVDQDFMRKVKR
Result: 0.223

Ask: // Input: DEQNLQDAAQRVDEVLRKGNEEDVTKMMDKDATMTVGDKVIHGRSKVRQQVRRLHEQVDHQEVEYVTAHNGRIKINMQADVNGQSLTFTVHIKVRNGRVKEIQIDPDYKRNLDR . Output its protease stability score only.
Result: -0.224

###

Can you tell me protease stability score for the items I'm about to list?
assay.details: protease stability score; higher = more stable; yeast display proteolysis, trypsin and chymotrypsin;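 further: log10 excess protease needed over predicted unfolded state with 0 meaning unfolded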
Please respond with just the number, no unit label.

Ask: Provide one value: measured protease stability score of DDEREREFEHFLRVVEEGNPEELKKLLDPNVRIEYGDKVIHGREEYAKRVHETVKELRFSMSIHDVKVNGDTVEVDATSSWTHNGQPNKDQNVLVIRFHNGKFKEIRHDKDR
Result: 0.607

Ask: Find the measured protease stability score of DSDKLRKSAKKFLDLQRTGNEDELKKMIDPNAKAVVGDKEYHGSTEIAHALARMRREVDHITLDRFQFKGNRLKANMTYQHNGRRDRFVVTVTMHNGRVSHITFKST and report it.
Result: 0.38

Ask: Give the measured protease stability score for DEDKHVHRAFEEMLTVMEKGNEDEVKRLVDKDVRVHIGDKSYRGRTNVAKQIVDWARRADHIEIEVTEIDIQGDQVTMRATAHATHNGKTQSYDFTIILRIENGRAVIHSWHVS
Result: 0.923

Ask: # return recorded protease stability score for input DDEFLKKVVEVIRHGDEERLVRNFDENARMRIGDKVFHGREEIKKALHRIREHADHIDVESVDQQGDTLDADVFIEVNGKNWVFKLKVTVHNGRIKEVSWHVRDEDADNIMKEIMS
Result: 1.8

Ask: Let me know recorded protease stability score for DEEVREVVKKMLEALKTGNSEQVRRNIDPNARLHVGEFDYHGQTQISEAVKRLSNEIKINYKDMKMRLHNGRVDVKVHQQNNSNGKPEEKTWRATIVAKNGRIKEIDQRDDK , thanks.
Result: -0.481

Ask: Provide one value: measured protease stability score of DDTRVKFALHLIKLEETGDEDKLRELMDPNAKISVGDKTYHGREEIVRELRRENHEMRVRIKQFRSTASGEKVRITMDAEFEHNGKPDRFELEVVFDFTNGRVKHIELHERR
Result: 1.22

Ask: State its protease stability score for this sequence: DEDANRELHKAMKHNDWDLLAKQMDKDVSKQVGDKTVHGRDRIQEDIKRLKTEIDHMEIEHVSARGDHLTADVHLVVNGQHVKFVIHIQFDNGRIKQIQWQVRDEDVEKQMKKLKG
Result: -0.074

Ask: // Input: DETAKKNVELYVQAFEDNDERKLNHMMDPNAHFRIGDRNVHGRDQVKDEVEKRRKEQSVKFKDVKVDVQGDKATIEIRWVVDKNGEPTEDVHKVDLKIHNGRAKYMQWDSVR . Output its protease stability score only.
Result: -0.07

Ask: Give the measured protease stability score for DEDHLKKFVSDLQHNSHERLSKQADENAEMEVGNKTYSGREQFSHFAQQQYHRADHFTIDRVEIRNGHITLEAVMVVDGHKIRFSAHAELHNGRLKFYVMKATNEDLVRQMNRLNN
Result: 0.701

Ask: Give the value of protease stability score reported for the following: DEKKDREAAQKAARAFVKGNKDKVKELGKEDVTAKFGDEEFRGVDQVTKAMEHWLKMGDQMQLREEKDEKNHVKVRTDQRVGGYEVTTEATYHAQGGRVDHAEDREPPEAQKLMQKG
Result: -0.258

Ask: Determine from records and report protease stability score for DETAVTVLTEIVKAQRQGDHNRFNELVDPNAKIRVGDKRVTGREQLTHEFHKNLKHMRVHQKVHDMKDHNGRVQATAQRRSNHNGKPKEVEVQFQATARNGRLTQMEMHSSG
Result: -0.643

Ask: Read off the recorded protease stability score for DEENVKIARELLKNRTSGNEEHFKRLVDPNARFNVGDTRIHGREEYVKQVRDDFRNSRESIDVRSVSASGDKVEVDMKMHFEHNGQPRSKKVILDAKIHNGRLKEYRVEEEK
Result: -0.045

Ask: // Input: DEDSDRSVAQEFFEAVQRGNKSDVHRLADKDAKAEVGEKDIDGREELTKWVRELKRRVDHLDVKSITNKPGRVHFDAEYHFNGTTEKMVIVVQVHNGKVKEVTVQRG . Output its protease stability score only.
Result: 0.908

Ask: Quote protease stability score reported for DHEEVKEFNKTLIKILETNDSKKLHELMDPNARIQIGDKDVSGRHNIHKLAEENKRRVDHFRVSRIDYHNGKVRADFTYVVNGQKHRVDMDIDITNGKIKRIIYHQR please.
Result: 0.011

Ask: Provide measured protease stability score value, entry: DDEIWSQIEHLLEIFKTGDEERYREQVDPNAKADVGDKKIHGRERIARHLYHLAKNMTIKREVDSVNIQGNEVSASFEVTVNINGNPIRFTVRVNYNFHNGRLQTFEIDVSEDLTKHMDS
Result: 1.9

Ask: Give recorded protease stability score. DESQQKHLTRLLEDNDFDRLAELADKHVRVEYGDQSYQGRETFQEMQEKLKKRADHLTYRSIDNQGDKIKVDFVLNVNGKDVRLQFDFRFNNGHIKEMTITATSEENLHKFEEALS
Result: -0.094

Ask: Assign protease stability score to the following record: DEQDNEKARRIMDRGDPHELNRMADKDARVQVGDKTWHGRSQFEEFVKRFHDRVDHIEVKSVHVHGNEVRVDLVVVVNGHEARFIMVASVHNGHATSLSINVTDPRVEEVLRDIFD
Result: 0.014

Ask: Please give measured protease stability score of the following entry: DEKLLDLLEKILQAEHENDPDQARELADPNVKYRYGDKSVNGRHEWVKDLERKTQKIKVEYKRIQVDAKGDKAHANVHMTVNHNGKPDKVLMEIVVRAHNGKVTELTVHEDK
Result: 0.041

Ask: Please report protease stability score for the following sequence: DESDVEDLAKDAINAYQTGDPDQVARMADKDVKFTVGDHEVKGRNQLREHLQTIFHNVDHFDVTDMRINGNKARIHFTANVNGQTERNVMIIVAHNGKVRKMAIHSQ
Result: -0.566

Ask: Please give measured protease stability score of the following entry: DDENRRFAERLMKVWRTNNEEDARTLFDKDVRFEIGDKVLHGKEQYAQSVRDIKKEMRFDARVRSIDVRGEKVVVLYDVEVQHNGRPQTKQVIFIANVHNGRIKEARVEDTQ
Result: 0.271

Ask: Tell me measured protease stability score for DEHAKDVFDTLREARKRGDEDTMKRQVDPNAKAQVGDKTYHGSDEIARRLTEENRESRVEYHTMSVEIQGDHVVVRFRARYEHNGQPSHFHAVEVVKADNGQIVFLVLQETK please.
Result: 0.06

Ask: Identify measured protease stability score corresponding to DEHLQTLVTDLIRAEQNNDEERLKRLMDPNVRAQYGDQTVSGREEIVQKIIHKNREIHFSQEIKSISAHNGRIHVTVEFTEEHNGEPRRDKMHQTIIAHGDQIKEVRVKSDG
Result: -0.28

###

Answer each item with its documented protease stability score.
assay.details: protease stability score; higher = more stable; yeast display proteolysis, trypsin and chymotrypsin;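 further: log10 excess protease needed over predicted unfolded state with 0 meaning unfolded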
No unit in the answer, only the number.

Ask: Note down protease stability score recorded for DSEAEDLLRRILDAIRTNNREELHRQIDPNAHFEIGDREFKGMTQWATEIVRQAKEIRVDQSFHSISIRNGKLSARVEQVNETNGKPHSRQFKLRMKWHDGQVKFLSMEDDG
Result: 0.362

Ask: Give protease stability score for DKDAARRFNEMLQQIHTGNEQEVSKLVDEDADVKVGEKDVHGREQIHSEVKKMRDELSYRVQVNEFDDRGDKIRFNIRVRKNTNGKPKTSRNNLTVVVHNGRIKEVKAESDG
Result: 0.095

Ask: Give protease stability score for the following sequence: DEDQVQRVREMIKAWQHNDPEKLMQQVDPNVKARVGDKTLQGREQMSKDLDRRRKEARFVIRVQEVDKRENRVQVNVKMKVNHNGHPHSFSFILNVEVHGDHIHTIHIERDK
Result: 0.356

Ask: Respond only with protease stability score recorded for DEQDQAKKFNDEVRKIFETGNFRQFARLLDKNVTAEVGDQEVHGKEQAHKWAEDVWRTFDHIHYNMVDVDVENGRVEVHVQLTYDHNGTTERRTYVMELKLSNGRLKIVHMKQG
Result: 0.809

Ask: Please report protease stability score for the following sequence: EERDMEKMDTLVRDNDWKKMKNNVDPNAQVRIGEHEYTGKQQASTAFDILQKQVDHVDIHSFKNHGDQVEVHAILRYNGQNFQVNFRFRVHNGRFKKFSVEFTSEQQNKIMEEWLG
Result: -0.039

Ask: Read the entry DEENVKVMEHWNKATSNNDEDKHRELADENANFNIGDKRIHGREDFVRWVQELKNRLRIKVEVNSIQAQGDKVTVHYKLKQETNGEPDTRNVKATARIQNGRVRSLTVKDNQ and write its reported protease stability score.
Result: -0.116

Ask: Look up and state reported protease stability score for DENHKVRELVDRFKEAYDSNDPDQYQNQFDKDATVTVGDKVFHGDEQAKQMAEDIMRNVDSFSISLKRVRVRGDKVRVSFKVVNNRNGRHKTIHVTAVFVFDNGRLRAKSWHFQ
Result: 0.73

Ask: Consider the sequence DENDVKRVLDKLKDNNWEDLVKLMDKDARVEIGDHTIHGRENVHQWMSTIEKQVDHFQIDTMTVKGDTLDANVRMVVNGRKIVFRLKVSLKNGRITRIRFQATDEEQHQQIRQMLR and give its recorded protease stability score.
Result: 1.29

Ask: Answer with the recorded protease stability score of DEKKWEQWARHFNQLMKQNDPDTLMQLFDPNARVKYGDKEVHGRTQIVKMWQTLVEQVDHIRIKNYSVSGDHVVIEIIVVVNGQEVEFVFRARVHNGTIKSASIDYRNEEHYKRAQG only.
Result: 0.264

Ask: Using known records, supply protease stability score for NEEQAKRLAEKWIRAVENGNVDELRKLGKPDMEVVAVNEKAKGVDTVHKYMKKFTDRGVELKVDRAKNTGGRVRYTVRARYGGQELTAEVVIDIKDGKVDKVEFRVDERQAQYVLRG
Result: 0.812

Ask: Input DEDANKVMKKVVEAIKEGDPDTIRKLVDPNARVNVGDTTVNGREEFARQNHEKMNQSRIHYLSMDFEQREGHAVVTVRFEKHHNGKPDTDRYRATANFKNGKLTEYKQKEDG , output reported protease stability score.
Result: -0.291
